System: CCRF-CEM leukemia
Assay: NCI tumour cell line growth inhibition, 48 h
outcomeMeasure: GI50

Worked examples, 6 compounds total:
N#Cc1nn(-c2cc(=O)[nH]c3ccc(Cl)cc23)c(N)c1C#N : > 100000 nM
O=C(Nc1ccc(Br)cc1F)c1cc(Cl)ccc1O : 2080 nM
O=C(Cc1ccc(F)c(Cl)c1)Nc1cc(C2(C(F)(F)F)CC2)nn1CC1CCCCC1 : 4720 nM
NC1CCN(Cc2ccccc2)CC1 : > 100000 nM
COc1ccc(-c2ccc(=O)oc2C#Cc2cc(OC)c(OC)c(OC)c2)cc1O : 331 nM
Cc1nc(Nc2cccnc2)sc1C(=O)/C=C/c1ccc(F)cc1 : 1400 nM

For the compound `C[C@@H]1C[C@@H]([C@@H](CC2CC(=O)NC(=O)C2)OC(=O)CC(=O)c2ccccc2)C(=O)[C@@H](C)C1` , what GI50 is on record?
466 nM

For the compound `COC(=O)[C@]12CC[C@@H](C)[C@H](C)[C@@H]1C1=CC[C@@H]3[C@@]4(C)C[C@@H](O)[C@H](O)[C@@](C)(CO)C4=CC[C@@]3(C)[C@]1(C)CC2` , what GI50 is on record?
18200 nM

For the compound `O=C(c1ccco1)c1c(C(F)(F)F)nc2ccc(Cl)cc2[n+]1[O-]` , what GI50 is on record?
> 100000 nM

For the compound `COc1ccc2nc3ccccc3c(NCc3ccc(F)cc3)c2c1` , what GI50 is on record?
2060 nM

For the compound `COc1cnc2c(c1)C(=O)c1c-2n(CCCN2CCOCC2)c(=O)c2cc(Cl)ccc12` , what GI50 is on record?
120 nM
